experimental-system: T1, human GITR-His (human, UniProt Q9Y5U5 26-161)
T1 construct: Bought from Acro biosystems; also called GITR-His (Acro biosystems); antigen GITR-His
T1 sequence: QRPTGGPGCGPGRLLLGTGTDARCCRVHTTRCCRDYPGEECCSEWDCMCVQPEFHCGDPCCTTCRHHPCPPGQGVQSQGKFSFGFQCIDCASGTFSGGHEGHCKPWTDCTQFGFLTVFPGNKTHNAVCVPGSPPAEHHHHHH
test: PE-ELISA, sample OD against reference OD
Method: (2) crude antibodies were obtained by a conventional osmotic shock method, and the crude antibodies were transferred to an enzyme-labeled plate (Nunc) coated with the antigen GITR-His overnight, and incubated at room temperature for 1 h;
Ratio (+/-) by entry:

| binder | Ratio (+/-) |
| --- | --- |
| Nb-04 (VHH, Tested as crude extract from E. coli (osmotic shock)) VHH: QVQLQESGGGSVQAGGSLRLSCTASGFTVDDSGMGWYRQAPGNECELVSTISSDGSTYYADSVKGRFTISQDNAKNTVYLQMNSLKPEDTAVYYCAAPRVGVGWVRPCDYEYNYWGQGTQVTVSS | 22 |
| Nb-05 (VHH, Tested as crude extract from E. coli (osmotic shock)) VHH: QVQLQESGGGLVQPGGSLRLSCAASGFTFSNKVMSWVRQAPGKGFEWVSSIARGGDWTTYADSVEGRFTISRDNAKNTLYLQLNSLKTEDTAMYYCAQAENWKTPPGQGTQVTVSS | 21.5 |
| Nb-03 (VHH, Tested as crude extract from E. coli (osmotic shock)) VHH: QVQLQESGGGSVQAGGSLRLSCAASGYTYSGYCMGWFRQAPGKEHEGVASIVSGLGRPYYADSVKGRFTISQDNAKNTVYLQMNSLKPEDTAMYYCAAEWATKLCSEIPATEWDYWGQGTQVTVSS | 11.7 |
| Nb-11 (VHH, Tested as crude extract from E. coli (osmotic shock)) VHH: QVQLQESGGGSVQTGGSLRLSCTASGFTFDAADMGWYRQAPGNECELVSIISSDGSTYYADSVKGRFTISQDNAKNTVYLQMNSLKPEDTAVYYCAAPRVGVGWVRPCDYEYNYWGQGTQVTVSS | 7.78 |
| Nb-18 (VHH, Tested as crude extract from E. coli (osmotic shock)) VHH: QVQLQESGGGSVQTGGSLRLSCAASGLTSTTKYMGWFRQAPGKEREGVAGIYISSGATYYDDSVKGRFTISQDNAKNTVYLHINSLEPDDTAMYYCAASVLSVFRPLSSNQYHYWGQGTQVTVSS | 9.8 |
| Nb-01 (VHH, Tested as crude extract from E. coli (osmotic shock)) VHH: QVQLQESGGGLVQPGGSLRLSCTASGLTFDDYAMGWFRQAPGKGREGVSLITWSGSSTYYADSVKGRFTVSRDTATNTLVLQMNSLKPEDTAMYYCAADPRSGGYYSSPPPPAVYRYLRFWGQGTQVTVSS | 6.23 |
| Nb-10 (VHH, Tested as crude extract from E. coli (osmotic shock)) VHH: QVQLQESGGGLVQPGGSLRLSCAASGFAFGSSHMSWVRRAPGKGLEWVSTIHSGGGFGDYANSVQGRFTISRDVAKNTLYLQMNSLKPEDTAIYYCALATDWRKPPGQGTQVTVSS | 29.9 |
